Recorded inhibition for the following compounds
- Measured On: Virion infectivity factor (Human immunodeficiency virus type 1 group M subtype B (isolate BH10)) + Virion infectivity factor (Human immunodeficiency virus type 1 group M subtype B (isolate BRU/LAI)) + Virion infectivity factor (Human immunodeficiency virus type 1 group M subtype B (isolate PCV12)) + Virion infectivity factor (Human immunodeficiency virus type 1 group M subtype B (isolate HXB2)) + DNA dC->dU-editing enzyme APOBEC-3G (Homo sapiens) (UniProt P69720+P69721+P69722+P69723+Q9HC16)
- Protocol Description: inhibitors of Vif binding to APOBEC3G peptide, primary screen, biochemical, TR-FRET, GST-Vif 1-94, biotin-A3G peptide, dose response retest (AID 1117319);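 further: Vif residues 1-94 fused to GST binding biotinylated APOBEC3G peptide 110-148; 0% = full assay without inhibitor and 100% = GST in place of GST-Vif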
- Experimental Parameters: active compounds read high
Out of some 260,000 compounds screened, about 1,500 (0.58%) were called active. Inconclusive results (about 5%) are left out. These entries were drawn from the full list. Results with a measured potency or affinity are listed apart.

Known results for compounds:
CC(=O)Nc1ccc(/C(C)=N/NS(=O)(=O)c2ccccc2)cc1 : -13.2% (inactive)
Nc1c(N2CCCC2)cc(Cl)c2nonc12 : 22.8% (inactive)

Please report the recorded inhibition for CCc1noc(C)c1C(=O)OC(C)C(=O)Nc1ccccc1OC (stereo not given) .
3.88% (inactive)

Please report the recorded inhibition for Cc1ccc(S(=O)(=O)c2c(C)nn(C(C)(C)C)c2OC(=O)CC(C)C)cc1 .
-0.23% (inactive)

Please report the recorded inhibition for CCc1ccc(S(=O)(=O)/N=C2\C=C(NS(=O)(=O)c3ccccc3)C(=O)c3ccccc32)cc1 .
16% (inactive)
